Target: 11-beta-hydroxysteroid dehydrogenase type 2 (Mus musculus, UniProt P51661)
Sequence (P51661 whole entry): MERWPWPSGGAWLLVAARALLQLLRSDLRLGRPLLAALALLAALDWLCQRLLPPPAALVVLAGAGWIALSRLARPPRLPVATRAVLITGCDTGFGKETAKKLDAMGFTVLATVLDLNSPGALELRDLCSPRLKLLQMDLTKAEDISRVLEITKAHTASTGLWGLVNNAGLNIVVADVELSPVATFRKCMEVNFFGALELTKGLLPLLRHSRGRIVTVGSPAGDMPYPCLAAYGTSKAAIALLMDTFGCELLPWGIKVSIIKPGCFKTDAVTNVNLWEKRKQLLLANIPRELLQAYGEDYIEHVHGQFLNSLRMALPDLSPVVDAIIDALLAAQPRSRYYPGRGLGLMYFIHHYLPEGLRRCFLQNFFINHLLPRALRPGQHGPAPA
Quantity kind: IC50 (µM)

P = CC1(C)C(=O)N([C@H]2C3CC4CC2C[C@](C(N)=O)(C4)C3)CC1COc1ccc(C#N)cn1 (stereo partly specified)
Q = CC1(C)C(=O)N([C@H]2C3CC4CC2C[C@](C(=N)NO)(C4)C3)CC1COc1ccc(C(F)(F)F)cn1 (stereo partly specified)
R = CC1(C)C(=O)N([C@H]2C3CC4CC2C[C@](c2nnn[nH]2)(C4)C3)CC1COc1ccc(C(F)(F)F)cn1 (stereo partly specified)
Please order the records by their reported IC50, lowest number first. List labels; respect the requested ordering.
R, P, Q
